B1: ZNF649 (parent)
chain: DECEKAYFYMSCLVKHKRIHSREK

Variants of: B1
measurement.notes: protein stability index of a GFP-peptide fusion (GPS, HEK-293T) (PSI 1-6); higher = more stable;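 further: lentivirally expressed fusions sorted by FACS into six bins by GFP to DsRed ratio, PSI derived from sequencing read proportions per bin multiplied by bin number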
details: c terminus: a fixed tail appended
# reported protein stability index; entries follow
measured.metric: protein stability index

> print(dat)
                   sequence.content          measured.metric  result
 1   DEEEKAYFYMSCLVKHKRIHSREK [C3E]  protein stability index    3.97
 2  DECEKAYFYHSCLVKHKRIHSREK [M10H]  protein stability index    3.47
 3   DECEKTYFYMSCLVKHKRIHSREK [A6T]  protein stability index    2.55
 4  DECEKAYFYMSCLVKHKRIHSRVK [E23V]  protein stability index     2.2
 5  DECEKAYFYMSCLVKHKRIHSRKK [E23K]  protein stability index     2.7
 6   DECEKAYFSMSCLVKHKRIHSREK [Y9S]  protein stability index    3.56
 7   AECEKAYFYMSCLVKHKRIHSREK [D1A]  protein stability index    2.41
 8   DECEKACFYMSCLVKHKRIHSREK [Y7C]  protein stability index    3.25
 9  DECEKAYFYMSCLTKHKRIHSREK [V14T]  protein stability index    3.09
10  DECEKAYFYMSSLVKHKRIHSREK [C12S]  protein stability index    3.68
11  DECEKAYFYMSCLVKHKRIHNREK [S21N]  protein stability index    2.98
